B1: Ankyrin-1, residues 1405 to 1484; numbered along this chain, P16157 (parent)
chain: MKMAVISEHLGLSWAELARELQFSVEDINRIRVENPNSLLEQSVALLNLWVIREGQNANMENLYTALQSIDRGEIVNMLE

# Variants of: B1
# Assay Text: abundance fitness (aPCA) (normalised: wild type 0, dead -1); higher = more abundant; growth selection in yeast, the domain comes from the species named
# Reported Conditions: Homo sapiens
Value Type: abundance fitness
Please give only the number in your answer, with no unit.

Sequence Input: MKMAVISEHLGLSWAELARELQFSVEDINRIRVFNPNSLLEQSVALLNLWVIREGQNANMENLYTALQSIDRGEIVNMLE [E34F]
abundance fitness: -0.185

Which abundance fitness is listed for MKMAVISEHLGLSWAELARELQFSVEDINRIRVENPNSLLEQSVALLNLWVIREGQNANMENLYTALQSIDRGEMVNMLE [I75M] ?
-0.256

Values compiled from the Human Domainome abundance scans (Beltran et al. 2025).
